Biological target: THOC4 (ALYREF) (UniProt Q86V81 Q86V81:2-257)
Assay: SPR
observation-type: log10 of binding signal (log10 of the value in normalized Rmax)
// do not treat as linear: log10 of binding signal, unit normalized Rmax

Lookup: Recorded log10 of binding signal of UCUCCCAGCAUGUGCCAU (ssRNA, 2'-OMe all, full PS) [DKLS832163 (SEQ 11)] , please.
Found: -0.48

Lookup: Recorded log10 of binding signal of CCAUCUGUAAUUACAAAAUUAAA (ssRNA, 2'-OMe all, full PS) [DKLS765774 (SEQ 16)] , please.
Found: -0.01

Lookup: Recorded log10 of binding signal of CAGAGGCAGCAGUACG (ssRNA, 2'-OMe all, full PS) [LSA_ATG 3' truncation 16 nt] , please.
Found: -0.28

Lookup: Recorded log10 of binding signal of GUCUCCGUCGUCAUGCUGCC (ssRNA, 2'-OMe all, full PS) [ASO_ATG (DKLS421748)] , please.
Found: -0.48

Lookup: Recorded log10 of binding signal of CGGACUUGCCU (ssRNA, 2'-OMe all, full PS) [In3E3 5' truncation 11 nt] , please.
Found: -2.00

Lookup: Recorded log10 of binding signal of GUGCAUGGAAUCACGGAG (ssRNA, 2'-OMe all, full PS) [Open_A 3' truncation 18 nt] , please.
Found: -0.41

Lookup: Recorded log10 of binding signal of GGAGGGAGUCGGACUUGUCU (ssRNA, 2'-OMe all, full PS) [DKLS444294 (SEQ 65)] , please.
Found: 0.25

Lookup: Recorded log10 of binding signal of GUGCAUGGAAUCACGGA (ssRNA, 2'-OMe all, full PS) [Open_A 3' truncation 17 nt] , please.
Found: 0.00
